- System: CYP3A4
- assay_setup: human, 10 μM
Listing of recorded CYP3A4 gene fold-induction at 10 μM by entry.
measurement_kind: CYP3A4 gene fold-induction at 10 μM

>  <structure>
CO[C@H]1/C=C/O[C@@]2(C)Oc3c(C)c(O)c4c(c3C2=O)C2=NC3(CCN(CC(C)C)CC3)NC2=C(NC(=O)/C(C)=C/C=C/[C@H](C)[C@H](O)[C@@H](C)[C@@H](O)[C@@H](C)[C@H](OC(=O)c2cncnc2)[C@@H]1C)C4=O

>  <reported>
7.9

$$$$
>  <structure>
CO[C@H]1/C=C/O[C@@]2(C)Oc3c(C)c(O)c4c(c3C2=O)C2=NC3(CCN(CC(C)C)CC3)NC2=C(NC(=O)/C(C)=C/C=C/[C@H](C)[C@H](O)[C@@H](C)[C@@H](O)[C@@H](C)[C@H](OC(=O)Nc2c(C)nc3ccccn23)[C@@H]1C)C4=O

>  <reported>
3.0

$$$$
>  <structure>
CO[C@H]1/C=C/O[C@@]2(C)Oc3c(C)c(O)c4c(c3C2=O)C2=NC3(CCN(CC(C)C)CC3)NC2=C(NC(=O)/C(C)=C/C=C/[C@H](C)[C@H](O)[C@@H](C)[C@@H](O)[C@@H](C)[C@H](OC(=O)Nc2cccn3ccnc23)[C@@H]1C)C4=O

>  <reported>
3.6

$$$$
>  <structure>
CO[C@H]1/C=C/O[C@@]2(C)Oc3c(C)c(O)c4c(c3C2=O)C2=NC3(CCN(CC(C)C)CC3)NC2=C(NC(=O)/C(C)=C/C=C/[C@H](C)[C@H](O)[C@@H](C)[C@@H](O)[C@@H](C)[C@H](OC(=O)c2ccccc2)[C@@H]1C)C4=O

>  <reported>
8.6

$$$$
